# Test system: L. acidophilus NCFM
# EXPERIMENT NOTES: RNA-seq transcriptional analysis of L. acidophilus NCFM growing on plant glycosides
# Type: cell-based, Lactobacillus acidophilus
# TEST PARAMETERS: LBA1700 Transcriptional regulator-type, COG K
READOUT NAME: Transcripts per million (rpm)

>>> df
                                smiles_repr        system_tested                   readout_name  assay_value
0  OC[C@H]1O[C@@H](O[C@H]2[C@H](O)[C@@H](O)[C@@H](O)O[C@@H]2CO)[C@H](O)[C@@H](O)[C@H]1O  L. acidophilus NCFM  Transcripts per million (rpm)         28.8
1  N#C[C@H](O[C@@H]1O[C@H](CO[C@@H]2O[C@H](CO)[C@@H](O)[C@H](O)[C@H]2O)[C@@H](O)[C@H](O)[C@H]1O)c1ccccc1  L. acidophilus NCFM  Transcripts per million (rpm)         96.2
2  O=c1ccc2cc(O[C@@H]3O[C@H](CO)[C@@H](O)[C@H](O)[C@H]3O)c(O)cc2o1  L. acidophilus NCFM  Transcripts per million (rpm)         61.9
3  OCc1ccccc1O[C@@H]1O[C@H](CO)[C@@H](O)[C@H](O)[C@H]1O  L. acidophilus NCFM  Transcripts per million (rpm)           23

Where these numbers come from: patent US20200222474A1
